Biological target: HisAviTEV-hSTING (139-342) human AQ-mutated protein (Homo sapiens, UniProt Q86WV6, G230A/H232R/R293Q)
Construct: made in house; host or cells: E. coli Rosetta 2 (DE3), co-expressed with BirA (1-321)
Sequence (Q86WV6 with tags, fused parts or gaps G230A/H232R/R293Q): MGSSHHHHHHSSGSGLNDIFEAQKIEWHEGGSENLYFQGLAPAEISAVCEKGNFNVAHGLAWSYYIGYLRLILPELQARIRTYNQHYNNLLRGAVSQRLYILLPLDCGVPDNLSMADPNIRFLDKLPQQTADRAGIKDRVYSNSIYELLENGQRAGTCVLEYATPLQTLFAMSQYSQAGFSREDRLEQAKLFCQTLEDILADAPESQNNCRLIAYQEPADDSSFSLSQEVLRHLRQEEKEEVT
Test: Protein thermal shift assay, STING C-terminal binding domain protein
Settings: test compound final concentration 0.5 mM

>  <Compound>
O=c1[nH]cnc2c1ncn2[C@@H]1O[C@@H]2COP(=O)(S)O[C@H]3[C@@H](O)[C@H](n4cc5c6c(ncnc64)NCCC5)O[C@@H]3COP(=O)(S)O[C@@H]1[C@@H]2O (single isomer, unassigned) [25b]

>  <ΔTm Hu-AQ>
13.1 °C

$$$$
>  <Compound>
O=P1(S)OC[C@H]2O[C@@H](n3cc4c5c(ncnc53)NCCC4)[C@H](O)[C@@H]2OP(=O)(S)OC[C@H]2O[C@@H](n3cnc4c(CO)ncnc43)[C@H](O1)[C@@H]2O (single isomer, unassigned) [17b]

>  <ΔTm Hu-AQ>
10.4 °C

$$$$
>  <Compound>
NCCNc1nc(N)c2ncn([C@@H]3O[C@@H]4COP(=O)(S)O[C@H]5[C@@H](O)[C@H](n6cc7c8c(ncnc86)NCCC7)O[C@@H]5COP(=O)(S)O[C@@H]3[C@@H]4F)c2n1 (single isomer, unassigned) [42b]

>  <ΔTm Hu-AQ>
7.4 °C

$$$$
>  <Compound>
NCCNc1nc(N)c2ncn([C@@H]3O[C@@H]4COP(=O)(S)O[C@H]5[C@@H](F)[C@H](n6cc7c8c(ncnc86)NCCC7)O[C@@H]5COP(=O)(S)O[C@@H]3[C@@H]4F)c2n1 (single isomer, unassigned) [45b]

>  <ΔTm Hu-AQ>
9.1 °C

$$$$
